Tested on: 242566-281-R-J2-PDC complex spheroid viability
Assay: Anticancer human tumor 242566-281-R-J2-PDC patient-derived pancreatic carcinoma cell line growth inhibition [CLK]
Details: curve of first compound; second compound 3.16 µM
Value Kind: IC50

C=CC(=O)Nc1cc(Nc2nccc(-c3cn(C)c4ccccc34)n2)c(OC)cc1N(C)CCN(C)C + CN1CCN(c2cc(C(=O)Nc3cc4cc(-c5cnn(C)c5)ccc4cn3)ccn2)CC1
< 0.000949 µM
Cn1ncnc1[C@H]1c2n[nH]c(=O)c3cc(F)cc(c23)N[C@@H]1c1ccc(F)cc1 + CNC(=O)c1ccc(Nc2nc(OC3CCCC3)c3c(-c4ccc5nc(C)oc5c4)c[nH]c3n2)c(OC)c1
0.0311 µM
CCN1CCN(Cc2ccc(Nc3ncc(F)c(-c4cc(F)c5nc(C)n(C(C)C)c5c4)n3)nc2)CC1 + CNC(=O)c1ccc(Nc2nc(OC3CCCC3)c3c(-c4ccc5nc(C)oc5c4)c[nH]c3n2)c(OC)c1
> 1 µM
C=CC(=O)N1CCN(c2nc(=O)n(-c3c(C)ccnc3C(C)C)c3nc(-c4c(O)cccc4F)c(F)cc23)C(C)C1 (stereo not given) + CN1CCN(c2cc(C(=O)Nc3cc4cc(-c5cnn(C)c5)ccc4cn3)ccn2)CC1
< 0.0316 µM
NC(=O)C(=Cn1cnc(-c2cc(C(F)(F)F)cc(C(F)(F)F)c2)n1)c1cncnc1 + CN1CCN(c2cc(C(=O)Nc3cc4cc(-c5cnn(C)c5)ccc4cn3)ccn2)CC1
< 0.00949 µM
Nc1ccn(C2OC(CO)C(O)C2(F)F)c(=O)n1 (stereo not given) + CNC(=O)c1ccc(Nc2nc(OC3CCCC3)c3c(-c4ccc5nc(C)oc5c4)c[nH]c3n2)c(OC)c1
0.0321 µM
O=c1[nH]cc(F)c(=O)[nH]1 + CN1CCN(c2cc(C(=O)Nc3cc4cc(-c5cnn(C)c5)ccc4cn3)ccn2)CC1
< 0.0316 µM
CC(CO)NC(=O)c1cc(-c2ccc(Cl)cc2)nn(-c2cnn(C)c2)c1=O (stereo not given) + CN1CCN(c2cc(C(=O)Nc3cc4cc(-c5cnn(C)c5)ccc4cn3)ccn2)CC1
< 0.0316 µM
CC(=O)O[C@H]1C(=O)[C@@]2(C)[C@H]([C@H](OC(=O)c3ccccc3)[C@]3(O)C[C@H](OC(=O)[C@H](O)[C@@H](NC(=O)c4ccccc4)c4ccccc4)C(C)=C1C3(C)C)[C@]1(OC(C)=O)CO[C@@H]1C[C@@H]2O + CNC(=O)c1ccc(Nc2nc(OC3CCCC3)c3c(-c4ccc5nc(C)oc5c4)c[nH]c3n2)c(OC)c1
< 0.0316 µM
C=C(F)C(=O)N1CCN(c2nc(OCC3CCCN3C)nc3c2CCN(c2cccc4cccc(Cl)c24)C3)CC1CC#N (stereo not given) + CNC(=O)c1ccc(Nc2nc(OC3CCCC3)c3c(-c4ccc5nc(C)oc5c4)c[nH]c3n2)c(OC)c1
1.13 µM

====

Tested on: 242566-281-R-J2-PDC complex spheroid viability
Assay: Anticancer human tumor 242566-281-R-J2-PDC cell line growth inhibition [CLK];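 also: spheroids exposed to compounds for 7 days before readout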;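 as to viability, T/C: 100% = DMSO vehicle control wells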
Conditions: second compound 3.16 µM; first compound 0.1 µM; stronger effect = lower value
Text: A high-throughput screen of multi-cell type tumor spheroids was designed to identify active combinations of […] and targeted small molecules. Complex spheroids include a stromal component modeled by human endothelial cells (HUVEC) and fibroblasts modeled by human mesenchymal stem cells (MSCs). […] Compounds. […] If the clinical Cmax for an agent had not been determined, the highest concentration tested was 10 microM. […]
Measured viability, T/C of individual entries
Value Kind: viability, T/C (%)

CC(=O)O[C@H]1C(=O)[C@@]2(C)[C@H]([C@H](OC(=O)c3ccccc3)[C@]3(O)C[C@H](OC(=O)[C@H](O)[C@@H](NC(=O)c4ccccc4)c4ccccc4)C(C)=C1C3(C)C)[C@]1(OC(C)=O)CO[C@@H]1C[C@@H]2O + CN1CCN(c2cc(C(=O)Nc3cc4cc(-c5cnn(C)c5)ccc4cn3)ccn2)CC1
7.07
CC(Nc1ccc2c(c1)OCCn1cc(N3C(=O)OCC3C(F)F)nc1-2)C(N)=O (stereo not drawn) + CN1CCN(c2cc(C(=O)Nc3cc4cc(-c5cnn(C)c5)ccc4cn3)ccn2)CC1
5.94
Cn1ncnc1[C@H]1c2n[nH]c(=O)c3cc(F)cc(c23)N[C@@H]1c1ccc(F)cc1 + CN1CCN(c2cc(C(=O)Nc3cc4cc(-c5cnn(C)c5)ccc4cn3)ccn2)CC1
5.8

====

Test system: 242566-281-R-J2-PDC complex spheroid viability
Assay: Anticancer human tumor 242566-281-R-J2-PDC cell line growth inhibition [CLK];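 also: spheroids exposed to compounds for 7 days before readout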;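 as to viability, T/C: 100% = DMSO vehicle control wells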
Settings: second compound 0.0316 µM; first compound 0.1 µM; stronger effect = lower value
Quick reference: viability, T/C of the listed items.
Value Kind: viability, T/C (%)

CCc1c2c(nc3ccc(O)cc13)-c1cc3c(c(=O)n1C2)COC(=O)[C@]3(O)CC + CN1CCN(c2cc(C(=O)Nc3cc4cc(-c5cnn(C)c5)ccc4cn3)ccn2)CC1
8.08
CC(CO)NC(=O)c1cc(-c2ccc(Cl)cc2)nn(-c2cnn(C)c2)c1=O (stereo not drawn) + CN1CCN(c2cc(C(=O)Nc3cc4cc(-c5cnn(C)c5)ccc4cn3)ccn2)CC1
117
COC1C=CCC(C)C(C)S(=O)(=O)NC(=O)c2ccc3c(c2)N(CC2CCC21)CC1(CCCc2cc(Cl)ccc21)CO3 (stereo not drawn) + CN1CCN(c2cc(C(=O)Nc3cc4cc(-c5cnn(C)c5)ccc4cn3)ccn2)CC1
119

====

Tested on: 242566-281-R-J2-PDC complex spheroid viability
Assay: Anticancer human tumor 242566-281-R-J2-PDC cell line growth inhibition [CLK];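 also: spheroids exposed to compounds for 7 days before readout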
Conditions: curve of first compound; second compound 3.16 µM
pIC50: −log10 of the molar value.
# maps each entry to its pIC50
Value Kind: pIC50

CC1COCCN1c1cc(C2(S(C)(=N)=O)CC2)nc(-c2ccnc3[nH]ccc23)n1 (stereo not given) + CNC(=O)c1ccc(Nc2nc(OC3CCCC3)c3c(-c4ccc5nc(C)oc5c4)c[nH]c3n2)c(OC)c1
6.72
C=C(F)C(=O)N1CCN(c2nc(OCC3CCCN3C)nc3c2CCN(c2cccc4cccc(Cl)c24)C3)CC1CC#N (stereo not given) + CN1CCN(c2cc(C(=O)Nc3cc4cc(-c5cnn(C)c5)ccc4cn3)ccn2)CC1
> 7.50
CC(CO)NC(=O)c1cc(-c2ccc(Cl)cc2)nn(-c2cnn(C)c2)c1=O (stereo not given) + CNC(=O)c1ccc(Nc2nc(OC3CCCC3)c3c(-c4ccc5nc(C)oc5c4)c[nH]c3n2)c(OC)c1
< 5.00
COc1cccc2c1C(=O)c1c(O)c3c(c(O)c1C2=O)CC(O)(C(=O)CO)CC3OC1CC(N)C(O)C(C)O1 (stereo not given) + CNC(=O)c1ccc(Nc2nc(OC3CCCC3)c3c(-c4ccc5nc(C)oc5c4)c[nH]c3n2)c(OC)c1
> 7.50
CC1COCCN1c1cc(C2(S(C)(=N)=O)CC2)nc(-c2ccnc3[nH]ccc23)n1 (stereo not given) + CN1CCN(c2cc(C(=O)Nc3cc4cc(-c5cnn(C)c5)ccc4cn3)ccn2)CC1
> 7.50

====

Tested on: 242566-281-R-J2-PDC complex spheroid viability
Assay: Anticancer human tumor 242566-281-R-J2-PDC cell line growth inhibition [CLK];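 also: spheroids exposed to compounds for 7 days before readout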;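 as to viability, T/C: 100% = DMSO vehicle control wells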
Details: second compound 0.316 µM; first compound 0.0316 µM; stronger effect = lower value
Label fulfilled when viability, T/C is strictly below 80%; at or above that, label not fulfilled.

CC(=O)O[C@H]1C(=O)[C@@]2(C)[C@H]([C@H](OC(=O)c3ccccc3)[C@]3(O)C[C@H](OC(=O)[C@H](O)[C@@H](NC(=O)c4ccccc4)c4ccccc4)C(C)=C1C3(C)C)[C@]1(OC(C)=O)CO[C@@H]1C[C@@H]2O + CNC(=O)c1ccc(Nc2nc(OC3CCCC3)c3c(-c4ccc5nc(C)oc5c4)c[nH]c3n2)c(OC)c1
not fulfilled
COc1ccc([C@@H](O)c2cc(-c3ncnc4cc(N5CCOCC5)ccc34)c(F)cc2Cl)nn1 + CN1CCN(c2cc(C(=O)Nc3cc4cc(-c5cnn(C)c5)ccc4cn3)ccn2)CC1
fulfilled
CCc1c2c(nc3ccc(O)cc13)-c1cc3c(c(=O)n1C2)COC(=O)[C@]3(O)CC + CN1CCN(c2cc(C(=O)Nc3cc4cc(-c5cnn(C)c5)ccc4cn3)ccn2)CC1
fulfilled
CCCS(=O)(=O)Nc1ccc(F)c(C(=O)c2c[nH]c3ncc(-c4ccc(Cl)cc4)cc23)c1F + CNC(=O)c1ccc(Nc2nc(OC3CCCC3)c3c(-c4ccc5nc(C)oc5c4)c[nH]c3n2)c(OC)c1
fulfilled

====

compounds and their reported IC50
System: 242566-281-R-J2-PDC complex spheroid viability
Assay: Anticancer human tumor 242566-281-R-J2-PDC cell line growth inhibition [CLK];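 also: spheroids exposed to compounds for 7 days before readout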
Conditions: curve of first compound; second compound 0.316 µM
Value Kind: IC50

COC1C=CCC(C)C(C)S(=O)(=O)NC(=O)c2ccc3c(c2)N(CC2CCC21)CC1(CCCc2cc(Cl)ccc21)CO3 (centres undefined) + CN1CCN(c2cc(C(=O)Nc3cc4cc(-c5cnn(C)c5)ccc4cn3)ccn2)CC1
< 31.6 nM
COc1cccc2c1C(=O)c1c(O)c3c(c(O)c1C2=O)CC(O)(C(=O)CO)CC3OC1CC(N)C(O)C(C)O1 (centres undefined) + CNC(=O)c1ccc(Nc2nc(OC3CCCC3)c3c(-c4ccc5nc(C)oc5c4)c[nH]c3n2)c(OC)c1
102 nM
CCc1c2c(nc3ccc(O)cc13)-c1cc3c(c(=O)n1C2)COC(=O)[C@]3(O)CC + CN1CCN(c2cc(C(=O)Nc3cc4cc(-c5cnn(C)c5)ccc4cn3)ccn2)CC1
< 3.16 nM
CCN1CCN(Cc2ccc(Nc3ncc(F)c(-c4cc(F)c5nc(C)n(C(C)C)c5c4)n3)nc2)CC1 + CN1CCN(c2cc(C(=O)Nc3cc4cc(-c5cnn(C)c5)ccc4cn3)ccn2)CC1
< 3.16 nM
COc1ccc([C@@H](O)c2cc(-c3ncnc4cc(N5CCOCC5)ccc34)c(F)cc2Cl)nn1 + CNC(=O)c1ccc(Nc2nc(OC3CCCC3)c3c(-c4ccc5nc(C)oc5c4)c[nH]c3n2)c(OC)c1
> 10000 nM
CC(=O)O[C@H]1C(=O)[C@@]2(C)[C@H]([C@H](OC(=O)c3ccccc3)[C@]3(O)C[C@H](OC(=O)[C@H](O)[C@@H](NC(=O)c4ccccc4)c4ccccc4)C(C)=C1C3(C)C)[C@]1(OC(C)=O)CO[C@@H]1C[C@@H]2O + CN1CCN(c2cc(C(=O)Nc3cc4cc(-c5cnn(C)c5)ccc4cn3)ccn2)CC1
< 31.6 nM
C=C(F)C(=O)N1CCN(c2nc(OCC3CCCN3C)nc3c2CCN(c2cccc4cccc(Cl)c24)C3)CC1CC#N (centres undefined) + CN1CCN(c2cc(C(=O)Nc3cc4cc(-c5cnn(C)c5)ccc4cn3)ccn2)CC1
< 31.6 nM
COc1cccc2c1C(=O)c1c(O)c3c(c(O)c1C2=O)CC(O)(C(=O)CO)CC3OC1CC(N)C(O)C(C)O1 (centres undefined) + CN1CCN(c2cc(C(=O)Nc3cc4cc(-c5cnn(C)c5)ccc4cn3)ccn2)CC1
< 31.6 nM
CC1(C)CCC(CN2CCN(c3ccc(C(=O)NS(=O)(=O)c4ccc(NCC5CCOCC5)c([N+](=O)[O-])c4)c(Oc4cnc5[nH]ccc5c4)c3)CC2)=C(c2ccc(Cl)cc2)C1 + CNC(=O)c1ccc(Nc2nc(OC3CCCC3)c3c(-c4ccc5nc(C)oc5c4)c[nH]c3n2)c(OC)c1
10000 nM
